Target Under Test: T1, human PD-L1-His (Sino Biological, Cat #10084-H08H) (human, UniProt Q9NZQ7 19-238)
T1 construct: Bought protein; also called human PD-L1 ECD-His; recombinant human PD-L1-His protein; not shown: His tag
T1 sequence (Q9NZQ7 19-238): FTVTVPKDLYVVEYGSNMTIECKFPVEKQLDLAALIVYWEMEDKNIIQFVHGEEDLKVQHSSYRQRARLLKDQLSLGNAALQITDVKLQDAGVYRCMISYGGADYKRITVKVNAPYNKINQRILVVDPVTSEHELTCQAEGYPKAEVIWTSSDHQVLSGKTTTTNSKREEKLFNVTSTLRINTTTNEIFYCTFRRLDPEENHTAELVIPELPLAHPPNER
Test Details: BLI (Gator), antibody on HFC probe, human PD-L1-His in solution
Metric: kon (M⁻¹ s⁻¹)
Answer format: numeric, M⁻¹ s⁻¹ implied, no suffix.

Example entries begin here.
- Binder: "73C8 (antibody, human IgG1, V domains shown) VH: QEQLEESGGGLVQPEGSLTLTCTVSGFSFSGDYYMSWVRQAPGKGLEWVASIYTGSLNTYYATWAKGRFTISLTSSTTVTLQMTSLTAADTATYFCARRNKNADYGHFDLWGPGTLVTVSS VL: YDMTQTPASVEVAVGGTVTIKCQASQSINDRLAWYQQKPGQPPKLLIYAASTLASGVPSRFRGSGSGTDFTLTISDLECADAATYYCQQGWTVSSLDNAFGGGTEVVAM"
  Result: 804000
- Binder: "28B3 (antibody, human IgG1, V domains shown) VH: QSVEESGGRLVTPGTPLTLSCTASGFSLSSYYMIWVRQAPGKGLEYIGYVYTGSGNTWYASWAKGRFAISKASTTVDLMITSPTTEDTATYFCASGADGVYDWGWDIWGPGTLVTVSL VL: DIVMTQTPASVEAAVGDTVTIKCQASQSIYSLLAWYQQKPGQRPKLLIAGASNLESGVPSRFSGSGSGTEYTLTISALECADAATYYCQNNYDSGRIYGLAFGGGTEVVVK"
  Result: 810000

Form field kon, entry 57F11 (antibody, human IgG1, V domains shown) VH: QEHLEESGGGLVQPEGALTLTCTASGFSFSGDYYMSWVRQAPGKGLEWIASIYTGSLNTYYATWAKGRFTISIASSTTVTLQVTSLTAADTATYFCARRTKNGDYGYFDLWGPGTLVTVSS VL: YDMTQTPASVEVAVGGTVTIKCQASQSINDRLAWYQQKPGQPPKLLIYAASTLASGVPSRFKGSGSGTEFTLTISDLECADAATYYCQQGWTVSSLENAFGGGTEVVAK : 371000

kon for 56E5 (antibody, human IgG1, V domains shown) VH: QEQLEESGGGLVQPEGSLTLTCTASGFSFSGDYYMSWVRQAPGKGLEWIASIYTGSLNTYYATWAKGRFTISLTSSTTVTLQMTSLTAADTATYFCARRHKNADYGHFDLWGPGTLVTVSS VL: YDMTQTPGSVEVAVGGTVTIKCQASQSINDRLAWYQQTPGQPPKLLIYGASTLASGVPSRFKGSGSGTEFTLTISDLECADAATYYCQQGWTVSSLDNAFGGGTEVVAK is 748000
